molecular target: feline FcRn complex (FcRn-α subunit and β-microglobulin), biotin labeled (feline); assay: SPR, pH 6
Parameter Kd: see the listing below.
Field: numeric (nM). Do not append units.

Consider the worked cases shown below.
# binder, unit-string, Kd
rows = [
    ("feline IgG1a S252Y/Q311W/L314K (antibody, part only; not given: Variable domains, not shown: another chain or arm of the molecule) constant: ASTTAPSVFPLAPSCGTTSGATVALACLVLGYFPEPVTVSWNSGALTSGVHTFPAVLQASGLYSLSSMVTVPSSRWLSDTFTCNVAHPPSNTKVDKTVRKTDHPPGPKPCDCPKCPPPEMLGGPSIFIFPPKPKDTLYISRTPEVTCLVVDLGPDDSDVQITWFVDNTQVYTAKTSPREEQFNSTYRVVSVLPILHWDWKKGKEFKCKVNSKSLPSPIERTISKAKGQPHEPQVYVLPPAQEELSRNKVSVTCLIKSFHPPDIAVEWEITGQPEPENNYRTTPPQLDSDGTYFVYSKLSVDRSHWQRGNTYTCSVSHEALHSHHTQKSLTQSPGK", "nM", 10.8),
    ("feline IgG1a S254Q (antibody, part only; not given: Variable domains, not shown: another chain or arm of the molecule) constant: ASTTAPSVFPLAPSCGTTSGATVALACLVLGYFPEPVTVSWNSGALTSGVHTFPAVLQASGLYSLSSMVTVPSSRWLSDTFTCNVAHPPSNTKVDKTVRKTDHPPGPKPCDCPKCPPPEMLGGPSIFIFPPKPKDTLSIQRTPEVTCLVVDLGPDDSDVQITWFVDNTQVYTAKTSPREEQFNSTYRVVSVLPILHQDWLKGKEFKCKVNSKSLPSPIERTISKAKGQPHEPQVYVLPPAQEELSRNKVSVTCLIKSFHPPDIAVEWEITGQPEPENNYRTTPPQLDSDGTYFVYSKLSVDRSHWQRGNTYTCSVSHEALHSHHTQKSLTQSPGK", "nM", 24.7),
    ("feline IgG1a A378D (antibody, part only; not given: Variable domains, not shown: another chain or arm of the molecule) constant: ASTTAPSVFPLAPSCGTTSGATVALACLVLGYFPEPVTVSWNSGALTSGVHTFPAVLQASGLYSLSSMVTVPSSRWLSDTFTCNVAHPPSNTKVDKTVRKTDHPPGPKPCDCPKCPPPEMLGGPSIFIFPPKPKDTLSISRTPEVTCLVVDLGPDDSDVQITWFVDNTQVYTAKTSPREEQFNSTYRVVSVLPILHQDWLKGKEFKCKVNSKSLPSPIERTISKAKGQPHEPQVYVLPPAQEELSRNKVSVTCLIKSFHPPDIDVEWEITGQPEPENNYRTTPPQLDSDGTYFVYSKLSVDRSHWQRGNTYTCSVSHEALHSHHTQKSLTQSPGK", "nM", 100),
]

# input for lookup
Param item = feline IgG1a D401R (antibody, part only; not given: Variable domains, not shown: another chain or arm of the molecule) constant: ASTTAPSVFPLAPSCGTTSGATVALACLVLGYFPEPVTVSWNSGALTSGVHTFPAVLQASGLYSLSSMVTVPSSRWLSDTFTCNVAHPPSNTKVDKTVRKTDHPPGPKPCDCPKCPPPEMLGGPSIFIFPPKPKDTLSISRTPEVTCLVVDLGPDDSDVQITWFVDNTQVYTAKTSPREEQFNSTYRVVSVLPILHQDWLKGKEFKCKVNSKSLPSPIERTISKAKGQPHEPQVYVLPPAQEELSRNKVSVTCLIKSFHPPDIAVEWEITGQPEPENNYRTTPPQLDSRGTYFVYSKLSVDRSHWQRGNTYTCSVSHEALHSHHTQKSLTQSPGK ; retrieve measured Kd.
4.77
